Ref: patent US8466188B2

# Compound, melting point
data = [
    ("O=C1N(CCC2CC2)c2ccccc2C12COc1cc3c(cc12)OCO3 (stereo not drawn)", "125 to 127 °C"),
    ("CCCCN1C(=O)C2(COc3cc4c(cc32)OCO4)c2ccccc21 (stereo not drawn)", "119 to 120 °C"),
    ("Cl.O=C1N(Cc2ccccn2)c2ccccc2C12COc1cc(OC(F)(F)F)ccc12 (stereo not drawn)", "150 to 152 °C"),
]

---

Readout label: melting point

# Compound, Reported result
rows = [
    ("CC(C)(C)OC(=O)N1CCC(CN2C(=O)C3(COc4cc5c(cc43)CCO5)c3ccccc32)CC1 (centres unmarked)", "96 to 98 °C"),
    ("Cc1ccc(F)c2c1N(CC(=O)Nc1ccccc1F)C(=O)C21COc2cc3c(cc21)CCO3 (centres unmarked)", "250 to 255 °C"),
    ("O=C1N(Cc2ccco2)c2ccccc2C12COc1cc3c(cc12)OCO3 (centres unmarked)", "110 to 112 °C"),
    ("O=C(NCCN1C(=O)C2(COc3cc4c(cc32)OCO4)c2ccccc21)c1ccccc1OC(F)(F)F (centres unmarked)", "183 to 184 °C"),
    ("O=C1N(Cc2ccc(Cl)s2)c2ccccc2C12COc1cc3c(cc12)OCO3 (centres unmarked)", "145 to 146 °C"),
    ("O=C1N(Cc2ccc(C(F)(F)F)o2)c2ccccc2C12COc1ccc(Br)cc12 (centres unmarked)", "143 to 145 °C"),
    ("O=C1N(Cc2ccc(C(F)(F)F)s2)c2ccccc2C12COc1cc3c(cc12)OCO3 (centres unmarked)", "127 to 130 °C"),
    ("O=C1N(CC2CCOCC2)c2ccccc2C12COc1cc3c(cc12)OCO3 (centres unmarked)", "142 to 144 °C"),
    ("COC(=O)c1ccccc1CN1C(=O)C2(COc3cc4c(cc32)OCO4)c2ccccc21 (centres unmarked)", "166 to 167 °C"),
    ("CC1(C)COc2cc3c(cc21)C1(CO3)C(=O)N(Cc2ccccn2)c2ccccc21.Cl (centres unmarked)", "145 to 147 °C"),
    ("CCCCCN1C(=O)C2(COc3cc4c(cc32)OCO4)c2c(C#N)cccc21 (centres unmarked)", "128 to 129 °C"),
    ("Cl.O=C1N(CCC2CCN(C3CCC3)CC2)c2ccccc2C12COc1cc3c(cc12)OCO3 (centres unmarked)", "158 to 160 °C"),
    ("CC(C)(C)OC(=O)N1CCC(CCN2C(=O)C3(COc4cc5c(cc43)OCO5)c3ccccc32)CC1 (centres unmarked)", "173 to 175 °C"),
    ("CN1C(=O)C2(COc3cc4c(cc32)OCO4)c2ccccc21 (centres unmarked)", "142 to 144 °C"),
    ("O=C1Nc2cccc(-c3cccc4c3oc3ccccc34)c2C12COc1cc3c(cc12)OCO3 (centres unmarked)", "> 230 °C"),
    ("CC(C)N1CCC(CCN2C(=O)C3(COc4cc5c(cc43)OCO5)c3ccccc32)CC1.Cl (centres unmarked)", "155 to 156 °C"),
    ("O=C1N(C(c2ccccc2)c2ccccc2)c2ccccc2C12COc1ccc(-c3cccnc3)cc12 (centres unmarked)", "204 to 207 °C"),
]
